Please respond with reported phosphorylation enrichment for every item in the list.
tested on: AncSZ; experiment: phosphorylation enrichment, bacterial display (enrichment ratio); higher = better substrate or ligand; peptides without Tyr show the background;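 further: 11-residue human phosphosite peptides and single-mutation variants displayed on the E. coli surface, counted by deep sequencing, each peptide's frequency after selection divided by its frequency in the unselected input library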;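 further: frequency after pTyr selection over input frequency; kinase dosed for 20-30% of maximal phosphorylation in three min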
Give the figure only, with no unit attached.

# input # query: phosphorylation enrichment of entry FCVDCYKNFVA [FHL1_Y213_YF]
# output 0.862

# input What phosphorylation enrichment value was documented for this sequence, GRPLFYWLTGC [LYZL6_Y140] ?
# output 0.968

# input Entry under review: VLTSKYRGGGG [HBA1_Y141] . Reported phosphorylation enrichment?
# output 0.386

# input Can you share its phosphorylation enrichment? I mean this sequence: GVRFTYTIDGS [DCX_Y105_I104T_YF]
# output 1.26

# input I am curious: what phosphorylation enrichment value has been reported for VYSTDCYRVGG [NTRK2_Y706_Y706C] ?
# output 1.07

# input Item GTFVIYVRFSG [FLNB_Y1687_G1691S_YF] has what recorded phosphorylation enrichment?
# output 1.17

# input // query phosphorylation enrichment value for entry DLDFTYIYPNI [PTEN_Y27_L25F]
# output 4.17

# input Consider the sequence TKAEKYVNKAK [PLCG1_Y991] and give its measured phosphorylation enrichment.
# output 0.503

# input Which phosphorylation enrichment value belongs to KSSDVYVSFDF [SORL1_Y136_YF] ?
# output 1.21

# input Need phosphorylation enrichment of YNDSAYNQQLI [ZPLD1_Y198_T197A] , thanks.
# output 0.987

# input Reported phosphorylation enrichment for KILGRYFETSS [PAX2_Y72_G76S_YF] : what is it?
# output 0.648

# input What measured phosphorylation enrichment goes with VLALWYYYLTN [ZDHHC23_Y127_H132N] ?
# output 1.29

# input Field request: phosphorylation enrichment | item: PKFHSYVSLPF [PLXNA2_Y293]
# output 1.35

# input // lookup phosphorylation enrichment for GTVRDYPDFSP [ANXA3_Y15]
# output 0.759

# input Which phosphorylation enrichment reading was recorded for the sequence KDHPDYKFQAR [SOX10_Y171_P175A_YF] ?
# output 0.757

# input Which value of phosphorylation enrichment has been reported for RGLQVYHRRNA [LRP2_Y2010] in the records?
# output 1.41

# input Recorded phosphorylation enrichment of VNFDYYTVNLG [GFPT1_Y367_D366Y] , please.
# output 5.81

# input // returns reported phosphorylation enrichment for input SDVCMYRKNTY [SYNE2_Y570_I574T]
# output 0.76

# input Which measured phosphorylation enrichment value corresponds to SSQAHYRLSAF [ADAMTS9_Y100] ?
# output 0.65

# input What value of phosphorylation enrichment has been reported for the following sequence? DTMQTYNGNDE [TSPAN7_Y131_A127T]
# output 0.976

# input // query phosphorylation enrichment value for entry VHNLDYFKETT [FGFR3_Y647_K650E_YF]
# output 0.853

# input Can you share its phosphorylation enrichment? I mean this sequence: RKGGSYTQAAS [HLA-A_Y344]
# output 0.631

---

system: Fer (mouse); experiment: phosphorylation enrichment, bacterial display (enrichment ratio); higher = better substrate or ligand; peptides without Tyr show the background
Assign phosphorylation enrichment to each entry below.
// print number alone

# input I am curious: what phosphorylation enrichment value has been reported for FGISGYVVDSV [MAP2K3_Y214_L215V] ?
# output 0.421

# input Please give the measured phosphorylation enrichment for this sequence: FRVAGYKTQGG [TIA1_Y383_E384K_YF]
# output 0.273

# input Entry PSALGYSPSLR [LLGL2_Y40] has what phosphorylation enrichment?
# output 0.512

# input Field request: phosphorylation enrichment | item: PNQRRYVFFFS [PTEN_Y174_S170N_YF]
# output 0.76

# input What does the data say about its phosphorylation enrichment? Entry: FFCRWYRNQKS [EREG_Y144_R147Q_YF]
# output 0.513

# input Name the recorded phosphorylation enrichment for KILGRYYETSS [PAX2_Y72_G76S] .
# output 0.447

# input If you can, please state the reported phosphorylation enrichment value of SDGKRYRVPSD [HHIPL2_Y395_H391D] .
# output 0.408

# input Looking for the measured phosphorylation enrichment of FSLPAFMDRRD [COX4I1_Y38_Y38F] , can you help?
# output 0.455

# input Field request: phosphorylation enrichment | item: VKPHRYRPGTV [H3-5_Y41]
# output 0.362

# input // phosphorylation enrichment lookup, key: SAVTGYRVNVI [FN1_Y937_D940N]
# output 0.434

# input Form field: reported phosphorylation enrichment of KEKLCYVALDF [ACTA1_Y220]
# output 1.29

# input Can you share its phosphorylation enrichment? I mean this sequence: CTNIHYNYMCN [TP53_Y234_T231N]
# output 0.522

# input // phosphorylation enrichment lookup, key: RSDEDYLYREE [POR_Y573]
# output 0.559

# input What value of phosphorylation enrichment has been reported for the following sequence? DLAGRYYALKS [CKB_Y173]
# output 0.597

# input Form field: reported phosphorylation enrichment of ALTRSYIREKV [CYP2C8_Y243]
# output 0.43

# input Return reported phosphorylation enrichment; argument: IVLRSYPASDH [NID2_Y449_G453D]
# output 0.44

# input I have this sequence here, FCVVRYCWLRR [MPZ_Y181_Y177C] , and I need its recorded phosphorylation enrichment.
# output 0.404

# input For the sequence shown here, AVIADYMFWLG [SPATA16_Y290_M286V] , give the reported phosphorylation enrichment.
# output 2

# input Value lookup for phosphorylation enrichment; key = KACKHYLTKRT [ZBTB5_Y118_T121K]
# output 0.668

# input Name the recorded phosphorylation enrichment for AAVDTVCRHNY [HLA-DRB1_Y107_Y107V] .
# output 0.417

# input Can you look up the measured phosphorylation enrichment of PLDGEYFTRQI [TP53_Y327_L330R] for me?
# output 0.291

# input Returns the measured phosphorylation enrichment for the input sequence. Input: QEGPEYWDQET [HLA-A_Y83]
# output 0.546

# input Query: phosphorylation enrichment; subject: TEDELYQLSLQ [RASGRP2_Y378]
# output 2.94

# input Item TKAEKYVNKAK [PLCG1_Y991] has what recorded phosphorylation enrichment?
# output 0.403

# input Any idea what phosphorylation enrichment was measured for FFDANYDGKEF [MAPRE2_Y162_YF] ?
# output 0.446

# input What measured phosphorylation enrichment goes with FGRTFYNQANM [MCCC2_Y196_I200N] ?
# output 0.51

# input Which phosphorylation enrichment is reported for this sequence? KFVKMYDNHQL [MYO9A_Y203_YF]
# output 0.458

# input Name the reported phosphorylation enrichment value associated with the sequence ETGNLYIAKVE [CNTN4_Y180]
# output 0.441

# input # get_value(readout='phosphorylation enrichment', item= VILENYGADID [DNAH5_Y596_L591V] )
# output 0.492

# input Given the entry SSVAGYACLAY [MVD_Y131_A128V] , report its measured phosphorylation enrichment.
# output 0.587

# input Give its phosphorylation enrichment value. Item: VLALWYYYLTN [ZDHHC23_Y127_H132N]
# output 0.766

# input Endpoint output: phosphorylation enrichment of FRPPFYHRNCM [HGD_Y334_YF] . Value?
# output 0.489

# input If you can, please state the reported phosphorylation enrichment value of EKNANYKEGTF [CLRN1_Y171_I168N_YF] .
# output 0.397

# input Requested read-out: phosphorylation enrichment. Entry: IDQDKYAVRFI [FLNA_Y2388]
# output 0.473

# input Need phosphorylation enrichment of MAFDRYVAVCA [OR52J3_Y125] , thanks.
# output 0.468

# input Using the record for VMIFAYLLHRG [PTEN_Y138_C136Y_YF] , report its phosphorylation enrichment.
# output 0.378

# input What does the record list as phosphorylation enrichment for TDKLFYIFTSG [SLC27A4_Y243_YF] ?
# output 0.472

# input Need phosphorylation enrichment of ERDFTYDELLN [EIF2S2_Y176_E177D_YF] , thanks.
# output 0.638

# input Would you mind telling me what phosphorylation enrichment value was observed for CGPLLYGLVHQ [PRKCG_Y122_S119P] ?
# output 8.22

# input Please report the recorded phosphorylation enrichment for ISKQEYDEAGP [ACTC1_Y364] .
# output 0.627

# input Could you share which phosphorylation enrichment value was measured for RGRSTCYWPRP [GAGE12J_Y9_Y9C] ?
# output 0.582

# input Requested read-out: phosphorylation enrichment. Entry: GRPLFYWLTGC [LYZL6_Y140]
# output 0.418

# input Using the record for EPVSDYINADI [PTPN11_Y304_N308D] , report its phosphorylation enrichment.
# output 0.614

# input Form field: reported phosphorylation enrichment of RRIHSYRGRLW [VHL_Y112_H115R]
# output 0.637

# input Requested field: phosphorylation enrichment. Item: VKGGAYNPVTV [MCCC2_Y145_Y146N]
# output 0.526

# input What value of phosphorylation enrichment has been reported for the following sequence? TFMKQYPKVFL [CNBD1_Y70]
# output 0.436

# input For the sequence shown here, IKNFKYGIEEH [GJA1_Y137_K134N] , give the reported phosphorylation enrichment.
# output 0.311

From: the supplement of paper PMC10065799
